Below, each entry is listed alongside its reported log10(MIC).
Tested on: Streptococcus pneumoniae
Protocol: Antimicrobial activity against Streptococcus pneumoniae isolate k-637 obtained from CSF of patient
Format: functional
Values are log10 of MIC in µg/mL.

Would you please look over these solved cases?
Compound: C[C@@H](O)[C@H]1C(=O)N2C(C(=O)O)=C(S[C@@H]3CN[C@H](C(=O)N(C)C)C3)[C@H](C)[C@H]12
Study System: Streptococcus pneumoniae
log10(MIC): -0.30
--
Compound: CC1(C)S[C@@H]2[C@H](NC(=O)Cc3ccccc3)C(=O)N2[C@H]1C(=O)O
Study System: Streptococcus pneumoniae
log10(MIC): 0.90
--
Compound: CO/N=C(\C(=O)N[C@@H]1C(=O)N2C(C(=O)O)=C(CSc3nc(=O)c(O)nn3C)CS[C@H]12)c1csc(N)n1
Study System: Streptococcus pneumoniae
log10(MIC): -0.30
--
Compound: CC1(C)S[C@@H]2[C@H](NC(=O)[C@H](N)c3ccc(O)cc3)C(=O)N2[C@H]1C(=O)O
Study System: Streptococcus pneumoniae
log10(MIC): 0.30

Kindly state the measured log10(MIC) obtained for CO/N=C(\C(=O)N[C@@H]1C(=O)N2C(C(=O)O)=C(COC(C)=O)CS[C@H]12)c1csc(N)n1 with Streptococcus pneumoniae. 0.00

Form field: log10(MIC) recorded for CO/N=C(\C(=O)N[C@@H]1C(=O)N2C(C(=O)O)=C(COC(N)=O)CS[C@H]12)c1ccco1 with Streptococcus pneumoniae (enter value) 0.60

Checklist item: log10(MIC) tested on Streptococcus pneumoniae, entry CO/N=C(\C(=O)N[C@@H]1C(=O)N2C(C(=O)[O-])=C(C[N+]3(C)CCCC3)CS[C@H]12)c1csc(N)n1 [CEFEPIME] , value? 0.30
